TARGET_OR_TEST_SYSTEM: Serine/threonine-protein kinase D2 (Homo sapiens)
PROTOCOL_TEXT: Inhibition of human PKD2 at 1 uM relative to control; values are per cent of control
MEASURED_ATTRIBUTE: residual activity (%)

{"columns": ["COMPOUND_STRUCTURE_STRING", "NUMERIC_VALUE"],
 "data": [
  ["O=C1NC(=O)C2=C1c1cn(c3ccccc13)CCCc1cc(nc(N3CCCC3)c1)CCCn1cc2c2ccccc21", 103],
  ["O=C1NC(=O)C2=C1c1cn(c3ccccc13)CCCc1ccc(c(N3CCCC3)n1)CCCn1cc2c2ccccc21", 115],
  ["CN(C)c1nc2ccc1CCCn1cc(c3ccccc31)C1=C(C(=O)NC1=O)c1cn(c3ccccc13)CC2", 100],
  ["CN(C)c1cc2cc(n1)CCCn1cc(c3ccccc31)C1=C(C(=O)NC1=O)c1cn(c3ccccc13)CCC2", 97]
]}

###

TARGET_OR_TEST_SYSTEM: Tyrosine-protein kinase ABL1 (Mus musculus)
PROTOCOL_TEXT: Residual activity of mouse Abl kinase at 1 uM relative to control
MEASURED_ATTRIBUTE: residual activity (%)

{"columns": ["COMPOUND_STRUCTURE_STRING", "residual activity / %"],
 "data": [
  ["O=C1NC(=O)C2=C1c1cn(c3ccccc13)CCCc1cc(nc(N3CCCC3)c1)CCCn1cc2c2ccccc21", 104],
  ["CN(C)c1cc2cc(n1)CCCn1cc(c3ccccc31)C1=C(C(=O)NC1=O)c1cn(c3ccccc13)CCC2", 108],
  ["O=C1NC(=O)C2=C1c1cn(c3ccccc13)CCCc1ccc(c(N3CCCC3)n1)CCCn1cc2c2ccccc21", 110],
  ["CN(C)c1nc2ccc1CCCn1cc(c3ccccc31)C1=C(C(=O)NC1=O)c1cn(c3ccccc13)CC2", 98]
]}

###

Species on record: Rattus norvegicus
PROTOCOL_TEXT: Inhibition of rat AMPK at 1 uM relative to control; values are per cent of control
MEASURED_ATTRIBUTE: residual activity (%)

{"columns": ["COMPOUND_STRUCTURE_STRING", "residual activity (%)"],
 "data": [
  ["O=C1NC(=O)C2=C1c1cn(c3ccccc13)CCCc1cc(nc(N3CCCC3)c1)CCCn1cc2c2ccccc21", 105],
  ["CN(C)c1cc2cc(n1)CCCn1cc(c3ccccc31)C1=C(C(=O)NC1=O)c1cn(c3ccccc13)CCC2", 101],
  ["O=C1NC(=O)C2=C1c1cn(c3ccccc13)CCCc1ccc(c(N3CCCC3)n1)CCCn1cc2c2ccccc21", 99],
  ["CN(C)c1nc2ccc1CCCn1cc(c3ccccc31)C1=C(C(=O)NC1=O)c1cn(c3ccccc13)CC2", 101]
]}

###

TARGET_OR_TEST_SYSTEM: Receptor-type tyrosine-protein kinase FLT3 (Homo sapiens) (UniProt P36888)
Sequence (P36888 whole entry): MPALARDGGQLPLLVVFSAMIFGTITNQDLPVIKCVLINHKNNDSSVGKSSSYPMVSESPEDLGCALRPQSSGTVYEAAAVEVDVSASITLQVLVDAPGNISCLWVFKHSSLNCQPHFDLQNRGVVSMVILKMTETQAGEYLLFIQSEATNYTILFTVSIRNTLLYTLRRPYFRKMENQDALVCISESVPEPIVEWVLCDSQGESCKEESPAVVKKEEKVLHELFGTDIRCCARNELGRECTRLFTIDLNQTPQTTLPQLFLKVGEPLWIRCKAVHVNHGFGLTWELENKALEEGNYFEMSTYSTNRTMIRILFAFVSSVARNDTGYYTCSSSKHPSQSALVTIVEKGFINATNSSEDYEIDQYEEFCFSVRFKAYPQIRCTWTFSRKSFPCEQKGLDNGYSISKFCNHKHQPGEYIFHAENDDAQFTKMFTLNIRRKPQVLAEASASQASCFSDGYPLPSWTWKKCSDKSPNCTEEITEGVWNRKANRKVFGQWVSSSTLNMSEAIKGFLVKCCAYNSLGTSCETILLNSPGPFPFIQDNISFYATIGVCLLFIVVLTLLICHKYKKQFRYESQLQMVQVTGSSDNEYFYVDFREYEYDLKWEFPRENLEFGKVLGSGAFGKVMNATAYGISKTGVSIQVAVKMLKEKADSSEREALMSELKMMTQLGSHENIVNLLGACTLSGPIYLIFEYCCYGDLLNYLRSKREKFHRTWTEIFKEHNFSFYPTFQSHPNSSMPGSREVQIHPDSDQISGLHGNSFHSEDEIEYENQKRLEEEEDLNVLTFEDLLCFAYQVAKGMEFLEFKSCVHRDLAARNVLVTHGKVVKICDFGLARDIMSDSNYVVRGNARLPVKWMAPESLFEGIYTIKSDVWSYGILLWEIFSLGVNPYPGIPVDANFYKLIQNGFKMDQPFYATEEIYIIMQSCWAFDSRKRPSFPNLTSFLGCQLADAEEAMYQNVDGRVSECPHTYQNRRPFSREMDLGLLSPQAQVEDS
PROTOCOL_TEXT: Residual activity of human Flt3 at 1 uM relative to control
MEASURED_ATTRIBUTE: residual activity (%)

{"columns": ["COMPOUND_STRUCTURE_STRING", "NUMERIC_VALUE"],
 "data": [
  ["CN(C)c1cc2cc(n1)CCCn1cc(c3ccccc31)C1=C(C(=O)NC1=O)c1cn(c3ccccc13)CCC2", 71],
  ["O=C1NC(=O)C2=C1c1cn(c3ccccc13)CCCc1cc(nc(N3CCCC3)c1)CCCn1cc2c2ccccc21", 77],
  ["O=C1NC(=O)C2=C1c1cn(c3ccccc13)CCCc1ccc(c(N3CCCC3)n1)CCCn1cc2c2ccccc21", 85],
  ["CN(C)c1nc2ccc1CCCn1cc(c3ccccc31)C1=C(C(=O)NC1=O)c1cn(c3ccccc13)CC2", 86]
]}
